TARGET_SYSTEM: PDE type V (Canis lupus familiaris, UniProt O77746)
Construct: By elution with a sodium chloride gradient (0 - 0.4 M), PDE types V and III were separated from the other isozymes; from tissue; host or cells: canine aorta
ASSAY_DETAILS: PDE inhibiting activity, type V
Type: biochemical, dog
TEST_CONTEXT: PDE purified from canine aorta; 1 µM substrate cGMP or cAMP; read-out: Inhibition Activity IC50 (µM) Type V
MEASURE: IC50 (µM)

In the examples that follow, each entry is paired with its recorded IC50.
1) O=c1c(Cc2cccnc2)cn2c3ccc(Br)cc3c3cc(OCc4cccnc4)cc1c32 ... 0.059
2) O=c1c(Cc2cccnc2)cn2c3ccc(Br)cc3c3cc(O)cc1c32 ... 0.1

P. O=c1ccn2c3ccc(Br)cc3c3cc(OCc4cccnc4)cc1c32
Q. CC(=O)OCc1cncc(COc2cc3c(=O)c(Cc4cccnc4)cn4c5cc(Br)ccc5c(c2)c34)c1
R. CC(C)(C)OC(=O)COc1cc2c(=O)ccn3c4ccc(Br)cc4c(c1)c23
In this exercise, place the 3 compounds in ascending sequence of their recorded IC50. Order the labels as requested and list them.
R, P, Q

###

TARGET_SYSTEM: PDE type V (Canis lupus familiaris, UniProt O77746)
Construct: By elution with a sodium chloride gradient (0 - 0.4 M), PDE types V and III were separated from the other isozymes; from tissue; host or cells: canine aorta
ASSAY_DETAILS: PDE inhibiting activity, type V
Format: biochemical, dog
TEST_CONTEXT: PDE purified from canine aorta; 1 µM substrate cGMP or cAMP; read-out: Inhibition Activity IC50 (µM) Type V
MEASURE: IC50 (µM)

1. O=c1c(Cc2cccnc2)cn2c3ccc(Br)cc3c3cc(OCc4ccccc4)cc1c32 [Example 11] ... 0.11

1. O=c1ccn2c3ccc(Br)cc3c3cc(OCc4ncon4)cc1c32 [Example 27]
2. O=C(O)COc1cc2c(=O)c(Cc3cccnc3)cn3c4cc(Br)ccc4c(c1)c23 [Example 33]
Among 1 and 2 , whose measured IC50 is the smaller figure? Could you answer with the label of the item you picked?
2
